Recorded inhibition at 10 µM for the following compounds
tested-system: CYP2B6 (Homo sapiens)
Construct: tissue Eurofins protocol ITEMG232; host or cells: human liver microsomes
Sequence (P20813 1-491): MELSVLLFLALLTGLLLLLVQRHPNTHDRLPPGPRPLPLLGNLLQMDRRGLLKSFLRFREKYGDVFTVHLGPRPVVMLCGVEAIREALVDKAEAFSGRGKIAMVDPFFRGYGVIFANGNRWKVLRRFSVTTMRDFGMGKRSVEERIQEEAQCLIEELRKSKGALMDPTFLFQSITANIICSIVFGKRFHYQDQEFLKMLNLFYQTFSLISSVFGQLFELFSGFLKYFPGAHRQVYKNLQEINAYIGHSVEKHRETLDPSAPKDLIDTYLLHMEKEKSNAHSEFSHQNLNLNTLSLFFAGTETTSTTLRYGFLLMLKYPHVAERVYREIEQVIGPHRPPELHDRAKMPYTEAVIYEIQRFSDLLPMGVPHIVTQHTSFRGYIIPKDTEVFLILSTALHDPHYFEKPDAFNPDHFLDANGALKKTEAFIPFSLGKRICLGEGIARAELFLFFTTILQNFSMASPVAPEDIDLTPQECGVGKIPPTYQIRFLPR
experimental-protocol: CYP inhibition, human liver microsomes
Type: in vitro ADME
details: probe bupropion, substrate bupropion, read-out: CYP2B6 Inh %
Give a bare numeral; the unit % is implied.

Solved entries:
[Q] Given `CC(C)Cc1cc(-c2ccc(Cn3ccnc3C(C)(C)C)c(F)c2)c(S(=O)(=O)NC(=O)NCc2cccs2)s1` , state its recorded inhibition at 10 µM.
[A] 50.5

[Q] Fill in the blank: the reported inhibition at 10 µM of `CC(C)Cc1cc(-c2ccc(Cn3ccnc3C(C)(C)C)cc2)c(S(=O)(=O)NC(=O)NCc2cccs2)s1` is ____.
[A] 9.6

[Q] Entry under review: `CCNC(=O)NS(=O)(=O)c1sc(CC(C)C)cc1-c1ccc(Cn2ccnc2C(C)(C)C)c(F)c1` . Reported inhibition at 10 µM?
[A] 27

[Q] Dear colleague, I am looking for the recorded inhibition at 10 µM of the following compound: `CC(C)Cc1cc(-c2ccc(Cn3ccnc3C(C)(C)C)cc2)c(S(=O)(=O)NC(=O)NCc2ccccn2)s1`
[A] 13.8

[Q] // inhibition at 10 µM lookup, key: `CC(C)Cc1cc(-c2ccc(Cn3ccnc3C(C)(C)C)c(F)c2)c(S(=O)(=O)NC(=O)NCc2ccccn2)s1`
[A] 24.9

Kindly consider the entry below.
[Q] # get_value(readout='inhibition at 10 µM', item= `CC(C)Cc1cc(-c2ccc(Cn3ccnc3C(C)(C)C)cc2)c(S(=O)(=O)NC(=O)NCc2ccco2)s1` )
[A] 96.5

====

tested-system: CYP2C19 (Homo sapiens, UniProt P33261)
Construct: tissue Eurofins protocol ITEMG232; host or cells: human liver microsomes
Sequence (P33261 whole entry): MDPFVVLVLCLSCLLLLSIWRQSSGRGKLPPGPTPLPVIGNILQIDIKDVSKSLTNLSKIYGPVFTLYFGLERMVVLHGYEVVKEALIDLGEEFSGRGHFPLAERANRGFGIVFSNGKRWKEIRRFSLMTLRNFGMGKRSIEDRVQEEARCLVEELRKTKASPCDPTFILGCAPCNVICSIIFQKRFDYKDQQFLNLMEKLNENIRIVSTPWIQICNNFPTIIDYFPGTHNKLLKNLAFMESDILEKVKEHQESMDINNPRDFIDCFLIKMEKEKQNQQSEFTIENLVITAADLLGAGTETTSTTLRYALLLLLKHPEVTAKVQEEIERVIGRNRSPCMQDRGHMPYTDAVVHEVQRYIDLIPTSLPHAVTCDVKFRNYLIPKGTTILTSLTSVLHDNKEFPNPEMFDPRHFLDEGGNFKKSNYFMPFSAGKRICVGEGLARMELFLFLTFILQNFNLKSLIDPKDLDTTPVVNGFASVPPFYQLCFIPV
experimental-protocol: CYP inhibition, human liver microsomes
Format: in vitro ADME
details: probe omeprazole, substrate omeprazole, read-out: CYP2C19 Inh %
Catalogue of inhibition at 10 µM readings, one per entry.
Quick note: give the figure in %, leave out the unit.

Here's what some known entries look like.
[Q] Data request, read-out inhibition at 10 µM, for CC(C)Cc1cc(-c2ccc(Cn3ccnc3C(C)(C)C)c(F)c2)c(S(=O)(=O)NC(=O)NCc2cccs2)s1 [Example 7]
[A] 49.1

[Q] // returns reported inhibition at 10 µM for input CCNC(=O)NS(=O)(=O)c1sc(CC(C)C)cc1-c1ccc(Cn2ccnc2C(C)(C)C)c(F)c1 [Example 6]
[A] 35.1

[Q] Item under review: CC(C)Cc1cc(-c2ccc(Cn3ccnc3C(C)(C)C)cc2)c(S(=O)(=O)NC(=O)NCc2ccco2)s1 [Example 1] . Reported inhibition at 10 µM?
[A] 49.1

[Q] If you can, please state the reported inhibition at 10 µM value of CC(C)Cc1cc(-c2ccc(Cn3ccnc3C(C)(C)C)c(F)c2)c(S(=O)(=O)NC(=O)NCc2ccccn2)s1 [Example 5] .
[A] 52.1

[Q] Report inhibition at 10 µM for CC(C)Cc1cc(-c2ccc(Cn3ccnc3C(C)(C)C)cc2)c(S(=O)(=O)NC(=O)NCc2ccccn2)s1 [Example 4] please.
[A] 44.4

Okay, now this molecule:
[Q] Bench note: what inhibition at 10 µM did CC(C)Cc1cc(-c2ccc(Cn3ccnc3C(C)(C)C)cc2)c(S(=O)(=O)NC(=O)NCc2cccs2)s1 [Example 2] show?
[A] 56.8
